target: interaction between the KRS protein and the laminin receptor (LR) (Homo sapiens, UniProt Q15046); construct: expressed in transfected cells; host or cells: yeast EGY/SH cells; test: Yeast Two Hybrid inhibition of the interaction between the KRS protein and the laminin receptor (LR); format: cell-based; conditions: 1 μL of 20 mM DMSO solution per 200 μL culture; 30° C., 6 days; absorbance 540 nm; non-treated control = 100%
Sequence (Q15046 whole entry): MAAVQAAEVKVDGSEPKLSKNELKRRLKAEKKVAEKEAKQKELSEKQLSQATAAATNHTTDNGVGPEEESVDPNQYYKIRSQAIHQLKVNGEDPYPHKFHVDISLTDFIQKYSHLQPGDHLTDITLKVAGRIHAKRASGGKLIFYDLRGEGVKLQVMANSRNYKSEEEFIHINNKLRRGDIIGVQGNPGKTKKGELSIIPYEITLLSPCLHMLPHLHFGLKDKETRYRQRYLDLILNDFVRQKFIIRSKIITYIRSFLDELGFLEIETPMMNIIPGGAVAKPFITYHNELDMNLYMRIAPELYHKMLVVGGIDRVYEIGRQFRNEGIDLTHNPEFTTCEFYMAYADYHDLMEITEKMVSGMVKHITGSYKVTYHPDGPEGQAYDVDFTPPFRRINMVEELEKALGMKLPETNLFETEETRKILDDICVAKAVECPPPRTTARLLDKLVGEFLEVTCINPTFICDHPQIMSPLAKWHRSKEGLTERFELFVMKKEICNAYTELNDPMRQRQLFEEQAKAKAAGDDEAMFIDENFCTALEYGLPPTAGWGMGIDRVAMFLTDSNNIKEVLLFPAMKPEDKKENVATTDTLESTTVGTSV
VALUE TYPE: Yeast cell proliferation rates KRS-LR (%)

MOLECULE: CCOc1ccc2c(c1)sc(=NC(=O)c1cccc(Cl)c1)n2C(C)C(=O)O (centres unmarked)
VAL: 41.4

MOLECULE: CCC(C(=O)O)n1c(=NC(=O)c2ccc(OC)cc2)sc2c(F)cccc21 (centres unmarked)
VAL: 39.0

MOLECULE: Cc1cccc2c1sc(=NC(=O)c1cccc(Cl)c1)n2C(C)C(=O)O (centres unmarked)
VAL: 28.2

MOLECULE: CC(C(=O)O)n1c(=NC(=O)c2cccc(Cl)c2)sc2c(Cl)cccc21 (centres unmarked)
VAL: 14.5

MOLECULE: CCC(C(=O)O)n1c(=NC(=O)c2ccc(C)cc2)sc2c(C)cccc21 (centres unmarked)
VAL: 11.7

MOLECULE: CCOc1ccc2c(c1)sc(=NC(=O)c1ccc(F)cc1)n2C(CC)C(=O)O (centres unmarked)
VAL: 29.6

MOLECULE: CC(C(=O)O)n1c(=NC(=O)c2cccc(Cl)c2)sc2c(F)c(F)c(F)cc21 (centres unmarked)
VAL: 24.7

MOLECULE: CCC(C(=O)O)n1c(=NC(=O)c2cccc(F)c2)sc2c(F)c(F)ccc21 (centres unmarked)
VAL: 49.3

###

assay: Cytotoxicity Study (WST); type: cell-based; conditions: human; A549 cells, serum-free RPMI1640, test compounds 0.39˜100 μM, 5 hours + 2 hours WST, absorbance 450 nm

COMPOUND: COc1cccc2sc(=NC(=O)c3cccc(C(F)(F)F)c3)n(C(C)C(=O)O)c12 (stereo not drawn)
IC50 at 5 h [µM]: 108
//
COMPOUND: CCC(C(=O)O)n1c(=NC(=O)c2cccc(Cl)c2)sc2cc(F)c(F)cc21 (stereo not drawn)
IC50 at 5 h [µM]: 172
//
COMPOUND: CCOc1ccc2c(c1)sc(=NC(=O)c1cccc(Cl)c1)n2C(CC)C(=O)O (stereo not drawn)
IC50 at 5 h [µM]: 95.5
//
COMPOUND: CCC(C(=O)O)n1c(=NC(=O)c2cccc(C(F)(F)F)c2)sc2cc(F)c(F)cc21 (stereo not drawn)
IC50 at 5 h [µM]: 144
//
COMPOUND: CC(C(=O)O)n1c(=NC(=O)c2cccc(C(F)(F)F)c2)sc2c(Cl)cccc21 (stereo not drawn)
IC50 at 5 h [µM]: 267
//
COMPOUND: CCC(C(=O)O)n1c(=NC(=O)c2cccc(Cl)c2)sc2ccc(Cl)cc21 (stereo not drawn)
IC50 at 5 h [µM]: 581
//
COMPOUND: CCC(C(=O)O)n1c(=NC(=O)c2cccc(F)c2)sc2cc(F)c(F)cc21 (stereo not drawn)
IC50 at 5 h [µM]: 361
//
COMPOUND: O=C(O)Cn1c(=NC(=O)c2cccc(C(F)(F)F)c2)sc2c(F)cccc21
IC50 at 5 h [µM]: 1190
//
COMPOUND: Cc1ccc(C(=O)N=c2sc3c(C(F)(F)F)cccc3n2C(C)C(=O)O)cc1 (stereo not drawn)
IC50 at 5 h [µM]: 74.9
//
COMPOUND: Cc1ccc(C(=O)N=c2sc3cc(C(F)(F)F)ccc3n2CC(=O)O)cc1
IC50 at 5 h [µM]: 245
//
COMPOUND: CCC(C(=O)O)n1c(=NC(=O)c2cccc(Cl)c2)sc2cc(OC(F)(F)F)ccc21 (stereo not drawn)
IC50 at 5 h [µM]: 247
//
COMPOUND: CC(C(=O)O)n1c(=NC(=O)c2cccc(Cl)c2)sc2cc(F)c(F)cc21 (stereo not drawn)
IC50 at 5 h [µM]: 877
